protocol_summary: Ratio of drug level in brain to plasma in C57BL/6J mouse at 20 mg/kg, po measured at 2 hrs
Type: ADME, organism-based
test_settings: read-out: BPR
Can you tell me Kp at 2 h for the items I'm about to list?

Data request, read-out Kp at 2 h, for C[C@@H](NC(=O)c1nn(-c2ccc(Cl)cc2)c2c1CN(C(=O)c1nc[nH]n1)C/C2=C\c1ccc(F)cc1)c1ccccc1
0.07

Data request, read-out Kp at 2 h, for COc1ccc(/C=C2\CN(C(=O)c3nc[nH]n3)Cc3c(C(=O)N[C@H](C)c4ccccc4)nn(-c4ccc(Cl)cc4Cl)c32)cc1
0.03

Data request, read-out Kp at 2 h, for COc1ccc(/C=C2\CN(C(=O)Cn3cnnn3)Cc3c(C(=O)N[C@H](C)c4ccccc4)nn(-c4ccc(Cl)cc4Cl)c32)cc1
0.02

Data request, read-out Kp at 2 h, for C[C@@H](NC(=O)c1nn(-c2ccc(Cl)cc2)c2c1CN(C(=O)c1nc[nH]n1)C/C2=C\c1ccc(Cl)cc1)c1ccccn1
0.04

Data request, read-out Kp at 2 h, for C[C@@H](NC(=O)c1nn(-c2ccc(Cl)cc2Cl)c2c1CN(C(=O)c1nc[nH]n1)C/C2=C\c1ccc(F)cc1)c1ccccc1
0.06

Data request, read-out Kp at 2 h, for C[C@@H](NC(=O)c1nn(-c2ccc(Cl)cc2)c2c1CN(C(=O)c1nc[nH]n1)C/C2=C\c1ccc(Cl)cc1)c1ccccc1
0.05

# credit: ChEMBL document CHEMBL3862001
